Entries and their measured inhibition follow.
experimental.details: TLR3 IRF3 reporter activation blockers – cell-based, poly I:C stimulus, luciferase, 10K MLSCN set, primary screen (AID 602277)
experimental.parameters: HEK293-TLR3 RL24 IRF3 luciferase reporter, at 10 µM, active compounds read high
Respond with the bare value in %.

{"columns": ["molecule", "readout.type", "value"],
 "data": [
  ["CCOC(=O)c1cccc(NC2c3ccccc3C(=O)N2Cc2ccco2)c1 (stereo not given)", "inhibition", 17.6]
]}

Task: Fill blank: measured inhibition of the molecule COc1ccc(CCNC(=O)c2ccc(N3CCCC3=O)cc2)cc1OC is ____.
Result: 20.6

Task: Fill blank: measured inhibition of the molecule CC(c1ccco1)N(Cc1ccco1)C(=O)Nc1ccccc1 (stereo not given) is ____.
Result: -21.4

Task: Fill blank: measured inhibition of the molecule COCCN(CC(=O)NCc1ccccc1)C(=O)CCC(=O)Nc1ccccn1 is ____.
Result: 19.4

Task: Fill blank: measured inhibition of the molecule O=C(Nc1ccc(Cl)cc1C(=O)O)c1ccc2c(c1)C(=O)N(Cc1ccco1)C2=O is ____.
Result: 28.2

Task: Fill blank: measured inhibition of the molecule COc1ccc(-c2noc(COc3ccc(C)c(C)c3)n2)cc1OC is ____.
Result: 98.1

Task: Fill blank: measured inhibition of the molecule O=C(c1c(Cl)nc2sccn12)N(C(=O)c1c(Cl)nc2sccn12)c1ccc(Cl)cn1 is ____.
Result: -77.8

Task: Fill blank: measured inhibition of the molecule Cc1ccc(C(C(=O)NC2CCCCC2)N2CCOCC2)cc1 (stereo not given) is ____.
Result: 15.1

Task: Fill blank: measured inhibition of the molecule COc1cc(C)nc(N2CCCC(C(=O)Nc3cccc(Cl)c3Cl)C2)n1 (stereo not given) is ____.
Result: 21.4

Task: Fill blank: measured inhibition of the molecule COc1ccc(C)cc1NC(=O)CSc1nnnn1Cc1ccccc1 is ____.
Result: 13.4

Task: Fill blank: measured inhibition of the molecule COc1cccc(-c2nnc(SCC(N)=O)n2-c2ccc(Cl)cc2)c1 is ____.
Result: 13.1

Task: Fill blank: measured inhibition of the molecule Cc1noc(C)c1COc1cccc(C(=O)Nc2ccc(C#N)cc2)c1 is ____.
Result: -0.298

Task: Fill blank: measured inhibition of the molecule c1ccc(N2CCN(Cc3cn4cccnc4n3)CC2)cc1 is ____.
Result: 18.5

Task: Fill blank: measured inhibition of the molecule CCOc1ccc(N2CC(C(=O)Nc3ccccc3OC)CC2=O)cc1 (stereo not given) is ____.
Result: -2.71

Task: Fill blank: measured inhibition of the molecule CCOC(=O)C1CCN(c2cc(C)nc3cc(-c4cccc(F)c4)nn23)CC1 is ____.
Result: -12.2

Task: Fill blank: measured inhibition of the molecule Cc1ccc2c(c1)N(CC(=O)N1CCCCC1c1cccnc1)C(=O)CO2 (stereo not given) is ____.
Result: 17.4

Task: Fill blank: measured inhibition of the molecule CC1(C)CC(=O)CC(=Nc2ccc(C(=O)O)cc2)C1 is ____.
Result: 42.2

Task: Fill blank: measured inhibition of the molecule CC(C)C(C(=O)Nc1ccc2c(c1)OCCO2)N1C(=O)c2ccccc2C1=O (stereo not given) is ____.
Result: 12.8

Task: Fill blank: measured inhibition of the molecule Cc1csc(NC(=O)CCCSc2nc3ccccc3s2)n1 is ____.
Result: 26.7

Task: Fill blank: measured inhibition of the molecule Cc1ccc(S(=O)(=O)NCCN2CCOCC2)cc1C is ____.
Result: 26.5

---

Entries and their measured inhibition follow.
experimental.details: blockers of RIG-like receptor reporter activation – cell-based, Sendai virus stimulus, luciferase, 10K MLSCN set, TLR/RLR signaling modifier project, primary screen (AID 602276);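 also: firefly luciferase from ISG56 promoter only with Renilla not read in this screen; 0% = Sendai virus plus DMSO and 100% = medium plus DMSO without virus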
experimental.parameters: HEK293 RL24 IRF3 luciferase reporter, at 10 µM, active compounds read high
Respond with the bare value in %.

{"columns": ["molecule", "units.symbol", "inhibition"],
 "data": [
  ["CCOC(=O)C1(C)NC(c2ccc(OC)c(OC)c2)C2C(=O)N(CC)C(=O)C21 (stereo unspecified)", "%", 1.25]
]}

Task: Fill blank: measured inhibition of the molecule O=C(Nc1nonc1NC(=O)C1CCCCC1)C1CCCCC1 is ____.
Result: 13.6

Task: Fill blank: measured inhibition of the molecule CCn1c(C)nc2cc(C(=O)OCCC(F)(F)F)ccc21 is ____.
Result: -16.4

Task: Fill blank: measured inhibition of the molecule CCOC(=O)CSc1ncnc2c1cnn2-c1ccc(C)cc1 is ____.
Result: 22.8

Task: Fill blank: measured inhibition of the molecule Cc1cnc(SCCc2ccncc2)nc1C is ____.
Result: 6.48

Task: Fill blank: measured inhibition of the molecule CCOc1ccc(-n2cc(C(=O)N3CCN(C)CC3)c3cc(OC)c(OC)cc3c2=O)cc1 is ____.
Result: -29.8

Task: Fill blank: measured inhibition of the molecule CCOc1cccc2cc(C(=O)N3CCN(C/C=C/c4ccccc4)CC3)c(=O)oc12 is ____.
Result: 1.41

Task: Fill blank: measured inhibition of the molecule Cc1[nH]c2ccccc2c1Cc1nnc(SCC(=O)NCc2ccco2)o1 is ____.
Result: -11.7

Task: Fill blank: measured inhibition of the molecule CC1CCN(CCn2c(=S)[nH]c3ncccc3c2=O)CC1 is ____.
Result: 10.2

Task: Fill blank: measured inhibition of the molecule COC(=O)C(C)Sc1nnc2n(-c3cccc(C)c3)c(=O)c3c4c(sc3n12)CCCC4 (stereo unspecified) is ____.
Result: -16

Task: Fill blank: measured inhibition of the molecule O=C(CSCc1cnn(-c2ccccc2)c1-n1cccc1)NCC1CCCO1 (stereo unspecified) is ____.
Result: 2.57

---

study.target: Voltage-gated potassium channel subunit beta-2 (Rattus norvegicus)
experimental.details: enhancers of rat Kvbeta2 NADPH turnover – biochemical, NADPH fluorescence, primary screen (AID 623);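 also: fluorescence intensity change per second fitted from 20 to 320 s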
experimental.parameters: Recombinant KvBeta, NADPH fluorescence decrease slope, 10 min; at 10 µM; active compounds read low
Entries and their measured NADPH fluorescence slope follow.
Note: the reply should be a number with no unit written.

Some solved cases for reference:
{"columns": ["compound", "NADPH fluorescence slope"],
 "data": [
  ["CCOc1nc(-c2ccccc2)ccc1-c1noc(-c2ccc(OC)c(OC)c2)n1", "5.6e-06"],
  ["CC1(C)CC(=O)C2=C(C1)NC(=O)CC2c1ccc(N(CCC#N)CCC#N)cc1 (stereo unspecified)", "6.8e-05"],
  ["c1ccc2oc(SCc3cn4ccccc4n3)nc2c1", "-4.1e-05"],
  ["Cc1nc(C)c(C(=O)C2=C(O)C(=O)N(CCCn3ccnc3)C2c2ccccc2)s1 (stereo unspecified)", "1.3e-05"],
  ["CN(C)CC(C(=O)c1ccccc1)c1ccccc1 (stereo unspecified)", "-1.2e-05"],
  ["CC(=O)NCCc1nc2ccccc2[nH]1", "-2.7e-05"],
  ["COc1ccc(NC(=O)C(C)NS(=O)(=O)c2ccc(NC(C)=O)cc2)cc1Cl (stereo unspecified)", "2.4e-05"],
  ["CC1CC(C)CN(CCCNC(=O)c2ccc3c(c2)NC(=O)C(N2CCCCC2)S3)C1 (stereo unspecified)", "6.4e-06"],
  ["CC(C)(C)n1nnnc1CN1CCC(NC(=O)NC2CCCCC2)CC1", "9.8e-06"],
  ["CCOC(=O)C1CCN(C(=O)COc2ccc(S(=O)(=O)NC(C)C)cc2Cl)CC1", "-1.1e-05"]
]}

Moving on to the next compound.
Task: Fill blank: measured NADPH fluorescence slope of the compound COc1ccc2[nH]c(=O)c(CNC3CCCCC3)cc2c1 is ____.
Result: -3.4e-05

---

experimental.details: inhibitors of TNFa-induced NFkB p65 translocation, primary screen, imaging, HUVEC, MLSMR starter and 10KST1 sets (AID 438);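 also: compound added about 3h40 before a 20 min TNFalpha stimulation; signal is the nuclear over cytoplasmic p65 intensity ratio per well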
experimental.parameters: HUVEC TNFa-induced p65 nuclear translocation; at 2 µM, active compounds read high, 0% TNFa-plus-vehicle, 100% no-TNFa wells
Entries and their measured inhibition follow.
Respond with the bare value in %.

{"columns": ["molecule", "readout.type", "value"],
 "data": [
  ["COC(=O)CSc1ncccc1-c1nc2ccccc2[nH]1", "inhibition", -4.5],
  ["COc1cc2c(cc1OC)CN(C(=O)CSc1nc3[nH]ncc3c(=O)n1-c1ccccc1)CC2", "inhibition", -8.2],
  ["CCCCn1c(NCCC)nc2c1c(=O)[nH]c(=O)n2C", "inhibition", -6.2],
  ["COc1cccc(C2CC(c3ccc(C)cc3)n3nc(N)nc3N2)c1 (stereo unspecified)", "inhibition", -0.9],
  ["CC(C)NC(=O)CSc1nc2ccccc2n1-c1ccccc1", "inhibition", 2.5]
]}

Moving on to the next molecule.
Task: Fill blank: measured inhibition of the molecule CCCCOc1ccc(-c2ncc(Cl)cn2)cc1 is ____.
Result: 3

This collection of values is drawn from PubChem BioAssay.
